# System: HCT-15 colon
# test name: NCI-60 one-dose screen, 48 h (100 = growth as untreated, 0 = no growth, -100 = all killed)
# stated conditions: 10 µM unless noted
This is part of a sample that, as a whole, favours compounds with a hit. Of some 83,000 tested, about 20% had one in any assay.
Kindly supply the reported growth values for the records listed here.
Give bare numbers, in %.

Worked cases, answers included:
Input: Which value of growth has been reported for "CSc1nc(CC(C)C)c(C#N)c(=O)n1C" in the records?
Output: 46.1

Input: Which value of growth has been reported for "COc1ccc2c(c1)C(c1c[nH]c3ccccc13)(c1c[nH]c3ccccc13)CCO2" in the records?
Output: 41.8

Input: Which value of growth has been reported for "O=C(/C=C/c1cccc([N+](=O)[O-])c1)c1ccc(Nc2nc(Nc3ccc(F)cc3)nc(Nc3ccc(Cl)cc3)n2)cc1" in the records?
Output: 83.9

Batch request: growth per item, same order as input.
1. COc1cccc(/C=C2\CCc3ccccc3C2=O)c1
2. COc1ccc(C(c2cc(OC)c(OC)c(OC)c2)n2cncn2)cc1O (centres undefined)
3. O=C(Nc1cccc2c1C(=O)c1cccc(NC(=O)c3ccc(C(=O)Nc4cccc5c4C(=O)c4cccc(NC(=O)c6ccccc6)c4C5=O)cc3)c1C2=O)c1ccccc1
4. C=C(c1ccc(C(=O)O)c(F)c1)c1cc2c(cc1C)C(C)(C)C=CC2(C)C
5. CCN1CCN(c2nc(NNC(=O)c3ccc(OC)cc3)nc(N3CCN(C(c4ccccc4)c4ccccc4)CC3)n2)CC1

Output:
87.2
14
105
79.3
22.2

Input: Which value of growth has been reported for "COc1cccc2cc(N(C)c3nc(C)nc4c3CCC4)ccc12" in the records?
Output: 8.06

* * *

# Tested on: UO-31 renal
# test name: NCI-60 one-dose screen, 48 h (100 = growth as untreated, 0 = no growth, -100 = all killed)
# stated conditions: 10 µM unless noted
The panel holds about 83,000 compounds, 20% with a hit somewhere; the sample as a whole holds those more often.
value type: growth (%)
One number for each entry, in %.

Worked cases, answers included:
Input: Which value of growth has been reported for "CCN1CCN(c2cc(C(=O)Nc3cccc(Nc4ccc5c(OC)cccc5n4)c3)cc(C(F)(F)F)c2)CC1" in the records?
Output: -8.51

Input: Which value of growth has been reported for "CCOC(=O)c1ccc2c(c1)c1c(C)c3cnccc3c(C)c1n2C" in the records?
Output: -53.6

Input: Which value of growth has been reported for "C=C(C)[C@@H]1CC[C@]2(COC(=O)c3cccnc3)CC[C@]3(C)[C@H](CC[C@@H]4[C@@]5(C)CCCN(C(=O)c6cccnc6)C(C)(C)[C@@H]5CC[C@]43C)[C@@H]12" in the records?
Output: 35.9

Input: Which value of growth has been reported for "COc1cc(CNC(=O)CCCC/C=C/C(C)C)ccc1OCc1cn(-c2ccc(C(F)(F)F)cc2)nn1" in the records?
Output: 70.5

Input: Which value of growth has been reported for "COc1cccc(/C=C/C(=O)/C=C(/C=C/c2cccc(OC)c2OC)OB(F)F)c1OC" in the records?
Output: 37.8

Batch request: growth per item, same order as input.
1. COC(CCP(=O)(c1ccccc1)c1ccccc1)(C(=O)c1ccccc1)c1ccccc1 (centres undefined)
2. Nc1nc(Nc2ccc([N+](=O)[O-])cc2O)nc(C(Cl)(Cl)Cl)n1
3. O=C(Nc1cccc(Cl)c1)Oc1c(Cl)c(Cl)c(Cl)c(Cl)c1Cl
4. Cc1cc2nc(C(Cl)Cl)nc(-c3ccccc3)n2n1

Output:
[33.4, 71.7, 72.1, 75.1]

* * *

# Test system: KM12 colon
# test name: NCI-60 one-dose screen, 48 h
# stated conditions: 10 µM unless noted
Compounds without any hit were thinned out: in the full panel of roughly 83,000, 20% have a hit. Activity calls are given as the source filed them. Rule for the calls: active = growth percent below 10; inactive = the rest.
Output constraint: value belongs to active, inactive

Input: # outcome recorded in this test, key = Nc1ncnc2c1N=C(c1ccc([N+](=O)[O-])cc1)CC(c1ccc3c(c1)OCO3)N2 (stereo not given)
Output: inactive

Input: # outcome recorded in this test, key = "CCCS(=O)(=O)Nc1cccc(Nc2ncnc3cc(NC(=O)CCl)ccc23)c1Cl"
Output: active

Input: # outcome recorded in this test, key = "CCOc1cc(\C=N/N=C(N)/C(N)=N\N=C/c2ccc(O)c(OCC)c2)ccc1O"
Output: inactive

Input: # outcome recorded in this test, key = "COc1ccc(Nc2nc(Nc3cc(C)[nH]n3)c3cc(OC)c(OC)cc3n2)cc1"
Output: active

Input: # outcome recorded in this test, key = CSc1nc(N)c2c(n1)NC(c1ccccc1)C1CCc3ccccc3C1=N2 (stereo not given)
Output: inactive

More entries:
Input: # outcome recorded in this test, key = "CC1(C)CC[C@]2(CO)CC[C@]3(C)[C@H](CC[C@@H]4[C@@]5(C)CC[C@H](O)C(C)(C)[C@@H]5CC[C@]43C)[C@H]2[C@H]1O"
Output: inactive

Input: # outcome recorded in this test, key = "CCOC(=O)c1cc(C(=O)c2cc(OC)cc(OC)c2)n2ccccc12"
Output: inactive

Input: # outcome recorded in this test, key = "CCCCCCC/C=N/NC(=O)c1ccc(-n2cc(-c3ccccc3)nn2)cc1"
Output: inactive

Input: # outcome recorded in this test, key = "O=C1c2c(c3c4cc(F)ccc4oc3c3[nH]c4ccccc4c23)C(=O)N1O"
Output: inactive

Input: # outcome recorded in this test, key = CCOC(=O)C1=C(c2ccccc2)N=C2SC=C(c3cccc([N+](=O)[O-])c3)N2C1c1ccc(O)cc1 (stereo not given)
Output: inactive

Input: # outcome recorded in this test, key = "COc1ccc(C(=O)/C=C/c2ccc(C)cc2)cc1S(N)(=O)=O"
Output: inactive

Input: # outcome recorded in this test, key = "COC(=O)c1c(C(=O)OC)c2ccc3c4ncccc4ccc3n2c1C(=O)c1ccc(C)cc1"
Output: inactive

Input: # outcome recorded in this test, key = "COc1cccc(CNc2nnc(C)c(C)n2)c1O"
Output: inactive

Input: # outcome recorded in this test, key = CC1=C([Se]CC(OC(=O)[C@@H](CO)NC(=O)OC(C)(C)C)C(=O)NCCCCCC(=O)OCc2ccccc2)C(=O)c2ccccc2C1=O (stereo not given in full)
Output: active

Input: # outcome recorded in this test, key = "C(=N\Nc1nnc2n1N=C(c1ccccc1)CS2)/c1ccc(OCc2ccccc2)cc1"
Output: inactive

Input: # outcome recorded in this test, key = CCN1C(=O)N(CC)C2C1NN=c1s/c(=C3\C(=O)N(C)c4ccccc43)c(=O)n12 (stereo not given)
Output: inactive

Input: # outcome recorded in this test, key = "C=CN(C(=O)N1CCN(c2cc3c(cc2F)c(=O)c(C(=O)O)cn3C2CC2)CC1)c1nc(-c2ccc(C)cc2)cs1"
Output: inactive

Input: # outcome recorded in this test, key = "C#CCOc1cccc(Nc2ncnc3c(NC(=O)CCl)cccc23)c1"
Output: inactive

Input: # outcome recorded in this test, key = "O=C(Oc1ccccc1)c1cc(O)c(O)c(O)c1"
Output: inactive

* * *

# Tested on: NCI-H226 lung
# test name: NCI-60 one-dose screen, 48 h (100 = growth as untreated, 0 = no growth, -100 = all killed)
# stated conditions: 10 µM unless noted
Compounds without any hit were thinned out: in the full panel of roughly 83,000, 20% have a hit.
Rule: growth below 90% gives Condition met. Equal to or above 90% gives Condition not met.

Input: growth under 90%? Item: "CCCCCCCCOC(=O)c1c(C)[nH]c(/C=C2\N=C(c3ccc[nH]3)C=C2OC)c1C"
Output: Condition met

More entries:
Input: growth under 90%? Item: "CCCCCCC/C=N/NC(=O)c1ccc(-n2cc(-c3ccccc3)nn2)cc1"
Output: Condition met

Input: growth under 90%? Item: "Cc1ccc(S(=O)(=O)N(CCC(=O)O)c2ccccc2)cc1"
Output: Condition not met

* * *

# Test system: HCT-15 colon
# test name: NCI-60 one-dose screen, 48 h (100 = growth as untreated, 0 = no growth, -100 = all killed)
# stated conditions: 10 µM unless noted
This is part of a sample that, as a whole, favours compounds with a hit. Of some 83,000 tested, about 20% had one in any assay.
Kindly supply the reported growth values for the records listed here.
Answers are plain numbers, in %.

Batch request: growth per item, same order as input.
1. c1ccc2c(-c3cnn4cc(-c5ccc(N6CCNCC6)cc5)cnc34)ccnc2c1
2. CC(C)(C)n1cc(-c2ccnc(NCCNS(=O)(=O)c3cccc4ccccc34)c2)c(-c2cccc(O)c2)n1
3. Cc1ccc(S(=O)(=O)c2nc(-c3ccccc3)oc2S(C)=O)cc1 (centres undefined)

Output:
-55.6
20.9
-53.1

Batch request: growth per item, same order as input.
1. Nc1nc(=O)n([C@H]2CC=C(CO)O2)cc1F
2. O=c1c2cccc3c(N4CCOCC4)ccc(c32)c2nc3ccccc3n12
3. O=C1Nc2ccccc2/C1=C/c1cccn1CCCCCCn1c2ccccc2c(=O)c2ccccc21
4. COc1cc(CNC(=O)CCCC/C=C/C(C)C)ccc1OCc1cn(-c2ccc(C(F)(F)F)cc2)nn1
5. COc1cc2c(c(OC)c1OC)CCC(c1cccc(C(=O)Nc3ccccc3Br)c1)O2 (centres undefined)
6. O=C(Nc1cccc(Cl)c1)Oc1c(Cl)c(Cl)c(Cl)c(Cl)c1Cl
7. CCNc1nc(-c2ccc(Cl)c(OC)c2)c(-c2ccnc(NCCNS(=O)(=O)c3ccc(Cl)cc3)n2)s1
8. CNC(=O)c1cc(Oc2ccc3nc(NC(=O)Nc4ccc(F)cc4F)sc3c2)ccn1

Output:
[101, 81, 23, 59.7, 92, 100, 16.7, 84]
